Catalogue of half-life at 2 μM values
test: GI S9 stability, cyno, Example Y
Type: in vitro ADME
conditionNotes: cynomolgus monkey, pooled intestinal S9 fractions; cyno intestinal S9, 1.0 mg/mL protein, 2 μM compound, pH 7.4; read-out: GIS9 Cyno T½ (per Ex. Y)
Just the number in min, nothing appended.

Given N#C[C@]1(COC(=O)O[C@@H]2CCOC2)O[C@@H](c2ccc3c(N)ncnn23)[C@H](O)[C@@H]1O , state its recorded half-life at 2 μM.
147

====

test: GI S9 stability, human, Example Y
Type: in vitro ADME
conditionNotes: pooled intestinal S9 fractions; human intestinal S9, 1.0 mg/mL protein, 2 μM compound, pH 7.4; read-out: GIS9 Human T½ (per Ex. Y)
readoutName: half-life at 2 μM
The reply should consist of the numeric value with the unit placed after it.

Given N#C[C@]1(COC(=O)OC2CCCC2)O[C@@H](c2ccc3c(N)ncnn23)[C@H](O)[C@@H]1O , state its recorded half-life at 2 μM.
31 min

Given COC(=O)OC[C@@]1(C#N)O[C@@H](c2ccc3c(N)ncnn23)[C@H](O)[C@@H]1O , state its recorded half-life at 2 μM.
201 min

Given N#C[C@]1(COC(=O)OC2CCCCC2)O[C@@H](c2ccc3c(N)ncnn23)[C@H](O)[C@@H]1O , state its recorded half-life at 2 μM.
44 min

Given N#C[C@]1(COC(=O)O[C@H]2CCOC2)O[C@@H](c2ccc3c(N)ncnn23)[C@H](O)[C@@H]1O , state its recorded half-life at 2 μM.
250 min

Given CC(C)(C)CCOC(=O)OC[C@@]1(C#N)O[C@@H](c2ccc3c(N)ncnn23)[C@H](O)[C@@H]1O , state its recorded half-life at 2 μM.
19 min

Given CC1(C)CC(OC(=O)OC[C@@]2(C#N)O[C@@H](c3ccc4c(N)ncnn34)[C@H](O)[C@@H]2O)C1 , state its recorded half-life at 2 μM.
29 min

Given N#C[C@]1(COC(=O)OC2CC2)O[C@@H](c2ccc3c(N)ncnn23)[C@H](O)[C@@H]1O , state its recorded half-life at 2 μM.
19 min

Given CC(C)CCOC(=O)OC[C@@]1(C#N)O[C@@H](c2ccc3c(N)ncnn23)[C@H](O)[C@@H]1O , state its recorded half-life at 2 μM.
20 min

Given N#C[C@]1(COC(=O)OCC2CC2)O[C@@H](c2ccc3c(N)ncnn23)[C@H](O)[C@@H]1O , state its recorded half-life at 2 μM.
33 min

Given COC[C@@H](C)OC(=O)OC[C@@]1(C#N)O[C@@H](c2ccc3c(N)ncnn23)[C@H](O)[C@@H]1O , state its recorded half-life at 2 μM.
292 min

Given CCCOC(=O)OC[C@@]1(C#N)O[C@@H](c2ccc3c(N)ncnn23)[C@H](O)[C@@H]1O , state its recorded half-life at 2 μM.
29 min

Given N#C[C@]1(COC(=O)OC2CCOCC2)O[C@@H](c2ccc3c(N)ncnn23)[C@H](O)[C@@H]1O , state its recorded half-life at 2 μM.
789 min

Given C[C@H]1CC[C@H](OC(=O)OC[C@@]2(C#N)O[C@@H](c3ccc4c(N)ncnn34)[C@H](O)[C@@H]2O)CC1 , state its recorded half-life at 2 μM.
36 min

Given CCCOCCOC(=O)OC[C@@]1(C#N)O[C@@H](c2ccc3c(N)ncnn23)[C@H](O)[C@@H]1O , state its recorded half-life at 2 μM.
108 min

Given N#C[C@]1(COC(=O)O[C@@H]2CCOC2)O[C@@H](c2ccc3c(N)ncnn23)[C@H](O)[C@@H]1O , state its recorded half-life at 2 μM.
178 min

Given CC(C)COC(=O)OC[C@@]1(C#N)O[C@@H](c2ccc3c(N)ncnn23)[C@@H]2OC(=O)O[C@@H]21 , state its recorded half-life at 2 μM.
1 min

Given CC(C)OC(=O)OC[C@@]1(C#N)O[C@@H](c2ccc3c(N)ncnn23)[C@H](O)[C@@H]1O , state its recorded half-life at 2 μM.
104 min

Given CC[C@H](C)OC(=O)OC[C@@]1(C#N)O[C@@H](c2ccc3c(N)ncnn23)[C@H](O)[C@@H]1O , state its recorded half-life at 2 μM.
65 min

Given CC[C@H](C)COC(=O)OC[C@@]1(C#N)O[C@@H](c2ccc3c(N)ncnn23)[C@H](O)[C@@H]1O , state its recorded half-life at 2 μM.
18 min

Given N#C[C@]1(COC(=O)OCCc2ccccc2)O[C@@H](c2ccc3c(N)ncnn23)[C@H](O)[C@@H]1O , state its recorded half-life at 2 μM.
44 min

Given N#C[C@]1(COC(=O)O[C@@H]2C[C@@H]3C[C@@H]3C2)O[C@@H](c2ccc3c(N)ncnn23)[C@H](O)[C@@H]1O , state its recorded half-life at 2 μM.
27 min
